target: human mGluR5d (Homo sapiens); assay: FLIPR assay of [Ca2+]i mobilization in cells expressing human mGluR5d (Group I receptor antagonist activity); conditions: antagonist block of agonist challenge
Sequence (P41594 21-942 isoform P41594-3 limits assumed): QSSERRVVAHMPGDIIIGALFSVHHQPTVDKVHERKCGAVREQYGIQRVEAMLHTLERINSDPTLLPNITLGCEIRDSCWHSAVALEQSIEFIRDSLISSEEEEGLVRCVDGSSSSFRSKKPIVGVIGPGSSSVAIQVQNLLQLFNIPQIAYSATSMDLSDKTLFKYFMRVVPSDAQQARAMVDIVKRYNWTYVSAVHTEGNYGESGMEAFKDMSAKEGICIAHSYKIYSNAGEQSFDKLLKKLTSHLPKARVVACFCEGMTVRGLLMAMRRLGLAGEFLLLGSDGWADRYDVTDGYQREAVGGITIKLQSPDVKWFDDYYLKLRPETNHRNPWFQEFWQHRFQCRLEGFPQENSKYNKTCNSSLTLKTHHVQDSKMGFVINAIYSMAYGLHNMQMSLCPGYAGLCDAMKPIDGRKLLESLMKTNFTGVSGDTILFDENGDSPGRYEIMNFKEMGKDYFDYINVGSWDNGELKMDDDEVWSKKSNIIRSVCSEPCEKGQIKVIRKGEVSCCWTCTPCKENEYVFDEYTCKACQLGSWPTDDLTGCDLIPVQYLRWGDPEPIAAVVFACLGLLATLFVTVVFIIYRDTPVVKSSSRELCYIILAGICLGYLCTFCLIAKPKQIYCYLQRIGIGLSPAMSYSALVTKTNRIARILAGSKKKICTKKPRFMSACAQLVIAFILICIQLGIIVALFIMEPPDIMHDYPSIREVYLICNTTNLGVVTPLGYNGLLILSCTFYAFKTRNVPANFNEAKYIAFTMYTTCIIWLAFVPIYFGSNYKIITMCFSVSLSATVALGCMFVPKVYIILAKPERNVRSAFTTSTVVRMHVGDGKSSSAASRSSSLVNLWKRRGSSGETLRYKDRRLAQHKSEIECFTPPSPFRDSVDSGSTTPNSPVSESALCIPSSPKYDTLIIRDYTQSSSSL
Reported metric: pIC50
A value of pIC50 is the negative decimal logarithm of a concentration given in moles per litre.

Compound | pIC50
CC(c1noc(-c2cccc(Cl)c2)n1)N1CCCCn2c(-c3ccncc3)nnc21 (centres unmarked) | 7.09

Alright, here's another compound for you.
Task: Input Clc1cccc(-c2nc(CC3CCn4c(-c5ccncc5)nnc43)no2)c1 (centres unmarked) , output reported pIC50.
Result: 7.31
